meta.source: ChEMBL document CHEMBL2176996

Below are molecules with their log10(Ki) as measured on 5-hydroxytryptamine receptor 4 (Cavia porcellus).
// do not treat as linear: log10 of Ki, unit nM

Short answer on 5-hydroxytryptamine receptor 4 (Cavia porcellus) for CCCN1CCC(COc2nc3cc(C)ccc3c3ccccc23)CC1 , log10(Ki): 2.84

Short answer on 5-hydroxytryptamine receptor 4 (Cavia porcellus) for CCCN1CCC(COc2nc3c(F)cccc3c3ncccc23)CC1 , log10(Ki): 0.34

Short answer on 5-hydroxytryptamine receptor 4 (Cavia porcellus) for Fc1cccc2c1nc(OCC1CCN(CCCc3ccc(I)cc3)CC1)c1cccnc12 , log10(Ki): 0.40

Short answer on 5-hydroxytryptamine receptor 4 (Cavia porcellus) for CCCN1CCC(COc2nc3ccccc3c3ccccc23)CC1 , log10(Ki): 1.71

Short answer on 5-hydroxytryptamine receptor 4 (Cavia porcellus) for CCCN1CCC(COc2nc3ccccc3c3cnccc23)CC1 , log10(Ki): 1.36

Short answer on 5-hydroxytryptamine receptor 4 (Cavia porcellus) for CCCN1CCC(COc2nc3c(C)cccc3c3ccccc23)CC1 , log10(Ki): 2.00

Short answer on 5-hydroxytryptamine receptor 4 (Cavia porcellus) for CCCN1CCC(COc2nc3c(I)cccc3c3ccccc23)CC1 , log10(Ki): 1.13

----------
- Tested target: 5-hydroxytryptamine receptor 4 (Cavia porcellus) (UniProt O70528)
- Sequence (O70528 whole entry): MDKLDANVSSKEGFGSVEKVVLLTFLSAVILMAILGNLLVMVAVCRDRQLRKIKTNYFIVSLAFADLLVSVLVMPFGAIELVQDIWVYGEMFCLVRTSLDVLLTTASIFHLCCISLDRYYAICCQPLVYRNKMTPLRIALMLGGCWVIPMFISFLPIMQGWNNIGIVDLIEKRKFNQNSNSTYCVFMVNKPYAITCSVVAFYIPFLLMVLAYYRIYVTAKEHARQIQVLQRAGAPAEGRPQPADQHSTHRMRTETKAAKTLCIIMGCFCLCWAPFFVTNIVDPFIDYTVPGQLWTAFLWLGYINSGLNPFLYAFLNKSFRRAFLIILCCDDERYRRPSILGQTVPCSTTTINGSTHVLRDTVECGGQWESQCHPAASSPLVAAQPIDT
- Assay remarks: Displacement of [3H]GR113808 from 5HT4R in guinea pig striatal membranes at 10 nM
- Assay type: cell membranes
- Experimental setup: Striatum, Membrane
Below: a set of entries, each annotated with reported inhibition.
Enter the number, and then the unit.

| Smiles code | inhibition |
| --- | --- |
| CCCN1CCC(COc2nc3ccccc3c3cc(C)ccc23)CC1 | 0% |
| CCCN1CCC(COc2nc3c(F)cccc3c3ncccc23)CC1 | 98% |
| CCCN1CCC(COc2nc3ccccc3c3ccc(F)cc23)CC1 | 4% |
| CCCN1CCC(COc2nc3c(I)cccc3c3ccccc23)CC1 | 0% |
| Ic1ccc(CCCN2CCC(COc3nc4ccccc4c4ccccc34)CC2)cc1 | 3% |
| CCCN1CCC(COc2nc3c(OC)cccc3c3ccccc23)CC1 | 22% |
| CCCN1CCC(COc2nc3cc(Cl)ccc3c3ccccc23)CC1 | 0% |
| CCCN1CCC(COc2nc3ccccc3c3ccc(OC)cc23)CC1 | 0% |

Input CCCN1CCC(COc2nc3ccccc3c3cnccc23)CC1 . Output inhibition: 50%

Input CCCN1CCC(COc2nc3ccc(Cl)cc3c3ccccc23)CC1 . Output inhibition: 0%

----------
Below: a set of entries, each annotated with reported Ki.
- Tested target: 5-hydroxytryptamine receptor 7 (Homo sapiens, UniProt P34969)
- Sequence (P34969 whole entry): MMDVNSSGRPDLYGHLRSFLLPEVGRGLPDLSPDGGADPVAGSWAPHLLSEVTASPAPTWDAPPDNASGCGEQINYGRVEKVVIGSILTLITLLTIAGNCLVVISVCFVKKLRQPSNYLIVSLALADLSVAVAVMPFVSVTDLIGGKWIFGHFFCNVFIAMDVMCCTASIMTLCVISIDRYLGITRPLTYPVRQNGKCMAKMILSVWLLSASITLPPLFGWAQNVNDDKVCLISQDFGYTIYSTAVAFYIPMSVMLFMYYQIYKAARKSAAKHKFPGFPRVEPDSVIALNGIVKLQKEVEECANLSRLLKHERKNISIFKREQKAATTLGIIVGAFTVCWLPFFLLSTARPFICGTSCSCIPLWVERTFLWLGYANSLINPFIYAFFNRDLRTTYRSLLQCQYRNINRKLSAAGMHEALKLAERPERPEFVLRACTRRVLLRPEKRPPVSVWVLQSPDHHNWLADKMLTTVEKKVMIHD
The response must be a number in nM with no trailing unit.

Input Fc1cccc2c1nc(OCC1CCN(CCCc3ccc(I)cc3)CC1)c1cccnc12 . Output Ki: 150

Input CCCN1CCC(COc2nc3c(I)cccc3c3ccccc23)CC1 . Output Ki: 153

Input CCCN1CCC(COc2nc3c(OC)cccc3c3ccccc23)CC1 . Output Ki: 3470

----------
Below: a set of entries, each annotated with reported EC50.
- Tested target: 5-hydroxytryptamine receptor 4 (Homo sapiens)
The response must be a number in nM with no trailing unit.

| Smiles code | Assay result |
| --- | --- |
| CCCN1CCC(COc2nc3c(OC)cccc3c3ccccc23)CC1 | 79.4 |
| CCCN1CCC(COc2nc3c(Cl)cccc3c3ccccc23)CC1 | 251 |

Input CCCN1CCC(COc2nc3ccccc3c3ncccc23)CC1 . Output EC50: 10

----------
Below are molecules with their pKi as measured on 5-hydroxytryptamine receptor 1E (Homo sapiens, UniProt P28566).
Sequence (P28566 whole entry): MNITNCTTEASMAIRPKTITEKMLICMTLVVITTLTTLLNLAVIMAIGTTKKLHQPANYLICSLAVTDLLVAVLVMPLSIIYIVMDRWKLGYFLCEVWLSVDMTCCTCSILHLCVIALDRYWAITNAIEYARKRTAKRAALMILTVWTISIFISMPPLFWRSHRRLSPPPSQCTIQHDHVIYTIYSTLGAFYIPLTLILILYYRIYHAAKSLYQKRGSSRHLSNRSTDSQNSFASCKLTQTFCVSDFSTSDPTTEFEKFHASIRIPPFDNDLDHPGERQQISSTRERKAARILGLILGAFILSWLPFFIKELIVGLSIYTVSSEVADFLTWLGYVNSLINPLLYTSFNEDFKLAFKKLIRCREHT
pKi: −log10 of the molar value.

Look over these answered cases.
| Smiles code | Tested target | Reported metric | Assay result |
| --- | --- | --- | --- |
| CCCN1CCC(COc2nc3c(I)cccc3c3ccccc23)CC1 | 5-hydroxytryptamine receptor 1E (Homo sapiens, UniProt P28566) | pKi | < 5.00 |
| CCCN1CCC(COc2nc3c(OC)cccc3c3ccccc23)CC1 | 5-hydroxytryptamine receptor 1E (Homo sapiens, UniProt P28566) | pKi | < 5.00 |

# input for lookup
Short answer on 5-hydroxytryptamine receptor 1E (Homo sapiens, UniProt P28566) for CCCN1CCC(COc2nc3ccccc3c3ncccc23)CC1 , pKi: < 5.00

----------
- Tested target: UniProt P41595
- Sequence (P41595 whole entry): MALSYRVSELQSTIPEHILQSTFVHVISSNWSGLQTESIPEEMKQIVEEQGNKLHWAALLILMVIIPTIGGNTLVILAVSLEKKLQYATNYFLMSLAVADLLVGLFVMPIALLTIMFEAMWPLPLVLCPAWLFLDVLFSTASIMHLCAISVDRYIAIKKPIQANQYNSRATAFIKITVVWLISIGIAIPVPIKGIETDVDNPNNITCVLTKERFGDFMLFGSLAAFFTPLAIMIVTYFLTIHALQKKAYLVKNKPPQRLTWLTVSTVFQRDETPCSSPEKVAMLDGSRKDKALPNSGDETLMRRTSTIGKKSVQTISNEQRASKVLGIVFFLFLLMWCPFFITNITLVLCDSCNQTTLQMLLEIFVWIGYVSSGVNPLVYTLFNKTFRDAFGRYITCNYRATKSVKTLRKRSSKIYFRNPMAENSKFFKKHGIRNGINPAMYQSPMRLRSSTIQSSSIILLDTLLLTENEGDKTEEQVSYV
Reported metric: pKi
Would you please state pKi, meaning minus log10 of the concentration in mol/L, as a bare number?

Look over these answered cases.
| Smiles code | Tested target | Assay result |
| --- | --- | --- |
| Fc1cccc2c1nc(OCC1CCN(CCCc3ccc(I)cc3)CC1)c1cccnc12 | UniProt P41595 | 6.47 |
| CCCN1CCC(COc2nc3ccccc3c3ncccc23)CC1 | UniProt P41595 | 6.20 |
| CCCN1CCC(COc2nc3c(OC)cccc3c3ccccc23)CC1 | UniProt P41595 | 7.53 |

# input for lookup
Short answer on UniProt P41595 for CCCN1CCC(COc2nc3c(I)cccc3c3ccccc23)CC1 , pKi: 6.79

----------
- Tested target: 5-hydroxytryptamine receptor 4 (Cavia porcellus, UniProt O70528)
Reported metric: pKi
Would you please state pKi, meaning minus log10 of the concentration in mol/L, as a bare number?

| Smiles code | pKi |
| --- | --- |
| CCCN1CCC(COc2nc3c(OC)cccc3c3ccccc23)CC1 | 7.46 |
| CCCN1CCC(COc2nc3ccc(OC)cc3c3ccccc23)CC1 | 6.63 |
| CCCN1CCC(COc2nc3cc(OC)ccc3c3ccccc23)CC1 | 5.72 |
| CCCN1CCC(COc2nc3ccccc3c3ccc(F)cc23)CC1 | 6.81 |

Short answer on 5-hydroxytryptamine receptor 4 (Cavia porcellus, UniProt O70528) for CCCN1CCC(COc2nc3ccc(C)cc3c3ccccc23)CC1 , pKi: 6.61

Short answer on 5-hydroxytryptamine receptor 4 (Cavia porcellus, UniProt O70528) for Ic1ccc(CCCN2CCC(COc3nc4ccccc4c4ccccc34)CC2)cc1 , pKi: 6.94

Short answer on 5-hydroxytryptamine receptor 4 (Cavia porcellus, UniProt O70528) for CCCN1CCC(COc2nc3ccccc3c3cccc(F)c23)CC1 , pKi: 7.67

Short answer on 5-hydroxytryptamine receptor 4 (Cavia porcellus, UniProt O70528) for CCCN1CCC(COc2nc3ccccc3c3ncccc23)CC1 , pKi: 7.88

----------
Below are compounds with their Ki as measured on UniProtKB P28335.
Sequence (P28335 whole entry): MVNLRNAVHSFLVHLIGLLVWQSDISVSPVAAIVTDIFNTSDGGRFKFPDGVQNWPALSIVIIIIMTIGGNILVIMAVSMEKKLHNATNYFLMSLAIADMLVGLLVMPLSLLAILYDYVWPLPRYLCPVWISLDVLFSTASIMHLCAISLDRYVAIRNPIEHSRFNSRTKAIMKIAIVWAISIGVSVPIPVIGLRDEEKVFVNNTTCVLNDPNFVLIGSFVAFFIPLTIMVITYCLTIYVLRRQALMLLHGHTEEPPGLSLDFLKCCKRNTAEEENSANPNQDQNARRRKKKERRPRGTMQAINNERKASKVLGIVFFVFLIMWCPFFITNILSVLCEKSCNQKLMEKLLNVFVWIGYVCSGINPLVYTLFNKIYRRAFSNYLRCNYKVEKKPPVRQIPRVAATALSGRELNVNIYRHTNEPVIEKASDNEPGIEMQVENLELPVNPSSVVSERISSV
The response must be a number in nM with no trailing unit.

| Smiles code | Tested target | Units label | Ki |
| --- | --- | --- | --- |
| CCCN1CCC(COc2nc3c(I)cccc3c3ccccc23)CC1 | UniProtKB P28335 | nM | 772 |
| CCCN1CCC(COc2nc3ccccc3c3ncccc23)CC1 | UniProtKB P28335 | nM | 2790 |

# input for lookup
Short answer on UniProtKB P28335 for Fc1cccc2c1nc(OCC1CCN(CCCc3ccc(I)cc3)CC1)c1cccnc12 , Ki: 400

----------
- Tested target: 5-hydroxytryptamine receptor 4 (Homo sapiens, UniProt Q13639)
- Sequence (Q13639 whole entry): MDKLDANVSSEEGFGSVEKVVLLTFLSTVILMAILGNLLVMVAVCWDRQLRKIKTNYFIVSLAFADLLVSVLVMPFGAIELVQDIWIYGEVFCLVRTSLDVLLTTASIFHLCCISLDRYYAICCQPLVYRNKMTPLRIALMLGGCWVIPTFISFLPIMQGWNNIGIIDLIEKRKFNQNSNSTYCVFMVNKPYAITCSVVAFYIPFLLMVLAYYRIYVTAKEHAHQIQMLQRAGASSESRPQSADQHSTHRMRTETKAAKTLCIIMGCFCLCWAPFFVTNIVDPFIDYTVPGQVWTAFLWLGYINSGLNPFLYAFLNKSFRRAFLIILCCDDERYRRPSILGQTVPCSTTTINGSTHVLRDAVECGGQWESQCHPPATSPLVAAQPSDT
- Assay remarks: Displacement of [3H]GR113808 from human recombinant 5HT4R expressed in HEK293T cells
- Assay type: cell-based, HEK-293T
Reported metric: pKi
Would you please state pKi, meaning minus log10 of the concentration in mol/L, as a bare number?

Look over these answered cases.
| Smiles code | pKi |
| --- | --- |
| CCCN1CCC(COc2nc3cc(F)ccc3c3ccccc23)CC1 | 7.48 |
| CCCN1CCC(COc2nc3c(Cl)cccc3c3ccccc23)CC1 | 8.30 |
| CCCN1CCC(COc2nc3ccccc3c3cnccc23)CC1 | 6.39 |
| CCCN1CCC(COc2nc3ccccc3c3ncccc23)CC1 | 8.12 |

Short answer on 5-hydroxytryptamine receptor 4 (Homo sapiens, UniProt Q13639) for CCCN1CCC(COc2nc3c(OC)cccc3c3ccccc23)CC1 , pKi: 7.77

----------
Below are compounds with their pKi as measured on 5-hydroxytryptamine receptor 1A (Homo sapiens, UniProt P08908).
Sequence (P08908 whole entry): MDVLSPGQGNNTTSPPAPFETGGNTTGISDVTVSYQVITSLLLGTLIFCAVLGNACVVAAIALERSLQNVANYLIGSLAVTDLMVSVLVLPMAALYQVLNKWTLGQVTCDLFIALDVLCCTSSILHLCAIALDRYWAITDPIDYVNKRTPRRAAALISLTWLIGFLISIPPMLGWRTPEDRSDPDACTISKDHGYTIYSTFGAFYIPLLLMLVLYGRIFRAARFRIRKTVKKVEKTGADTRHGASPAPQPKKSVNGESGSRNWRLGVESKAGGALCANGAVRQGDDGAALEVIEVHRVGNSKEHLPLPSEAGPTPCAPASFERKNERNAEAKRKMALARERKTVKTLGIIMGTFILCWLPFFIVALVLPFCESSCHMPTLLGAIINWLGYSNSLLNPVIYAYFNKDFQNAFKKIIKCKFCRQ
Would you please state pKi, meaning minus log10 of the concentration in mol/L, as a bare number?

| Smiles code | pKi |
| --- | --- |
| Fc1cccc2c1nc(OCC1CCN(CCCc3ccc(I)cc3)CC1)c1cccnc12 | 6.17 |

# input for lookup
Short answer on 5-hydroxytryptamine receptor 1A (Homo sapiens, UniProt P08908) for CCCN1CCC(COc2nc3c(I)cccc3c3ncccc23)CC1 , pKi: 5.25

----------
Below are compounds with their pKi as measured on 5-hydroxytryptamine receptor 3A (Homo sapiens, UniProt P46098).
Sequence (P46098 whole entry): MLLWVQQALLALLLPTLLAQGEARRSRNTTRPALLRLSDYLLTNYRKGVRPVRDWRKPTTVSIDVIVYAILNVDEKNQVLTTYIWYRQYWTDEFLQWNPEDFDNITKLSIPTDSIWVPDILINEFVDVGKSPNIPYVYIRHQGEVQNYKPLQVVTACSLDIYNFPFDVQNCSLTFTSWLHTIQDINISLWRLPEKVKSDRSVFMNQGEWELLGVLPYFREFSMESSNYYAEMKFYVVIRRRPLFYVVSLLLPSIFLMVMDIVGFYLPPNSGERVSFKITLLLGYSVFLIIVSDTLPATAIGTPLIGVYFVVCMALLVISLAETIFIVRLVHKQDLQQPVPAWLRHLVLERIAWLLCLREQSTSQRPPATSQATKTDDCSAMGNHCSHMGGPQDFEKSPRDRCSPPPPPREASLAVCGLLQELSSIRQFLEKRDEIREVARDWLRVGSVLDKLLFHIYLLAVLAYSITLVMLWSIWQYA
Would you please state pKi, meaning minus log10 of the concentration in mol/L, as a bare number?

| Smiles code | Assay result |
| --- | --- |
| Fc1cccc2c1nc(OCC1CCN(CCCc3ccc(I)cc3)CC1)c1cccnc12 | 6.39 |
| CCCN1CCC(COc2nc3ccccc3c3ncccc23)CC1 | 6.17 |

# input for lookup
Short answer on 5-hydroxytryptamine receptor 3A (Homo sapiens, UniProt P46098) for CCCN1CCC(COc2nc3c(I)cccc3c3ccccc23)CC1 , pKi: 5.88
